- system name: Human immunodeficiency virus type 1 integrase (Human immunodeficiency virus 1)
- Sequence (Q7ZJM1 whole entry): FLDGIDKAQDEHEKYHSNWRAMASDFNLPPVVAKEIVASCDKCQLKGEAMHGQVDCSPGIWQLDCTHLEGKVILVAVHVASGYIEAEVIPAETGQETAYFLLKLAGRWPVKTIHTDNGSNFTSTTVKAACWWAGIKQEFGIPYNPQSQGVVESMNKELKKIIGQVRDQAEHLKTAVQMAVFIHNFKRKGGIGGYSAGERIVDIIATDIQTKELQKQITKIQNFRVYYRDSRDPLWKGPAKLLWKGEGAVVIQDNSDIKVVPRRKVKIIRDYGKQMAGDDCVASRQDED
- measurement notes: Inhibition of wild-type HIV1 integrase 3'-end processing activity
measure name: IC50

In [3]: df
Out[3]:
                            smiles_structure    result
 0  CN(C)c1ccc(/C=C/C2=[O+][B-](F)(F)Oc3cc(/C=C/c4ccc(N(C)C)cc4)oc(=O)c32)cc1  > 100 µM
 1  Cc1cc2c(c(=O)o1)C(/C=C/c1ccc(Br)cc1)=[O+][B-](F)(F)O2     12 µM
 2  Cc1cc2c(c(=O)o1)C(/C=C/c1ccc(F)cc1)=[O+][B-](F)(F)O2      9 µM
 3  COc1ccc(/C=C/C2=[O+][B-](F)(F)Oc3cc(/C=C/c4ccc(N(C)C)cc4)oc(=O)c32)cc1  > 100 µM
 4  Cc1cc2c(c(=O)o1)C(/C=C/C=C/c1ccc(N(C)C)cc1)=[O+][B-](F)(F)O2  > 100 µM
 5  Cc1cc(O)c(C(=O)/C=C/C=C2/N(C)c3ccccc3C2(C)C)c(=O)o1  > 100 µM
 6  CN(C)c1ccc(/C=C/C(=O)c2c(O)cc(/C=C/c3ccc(N(C)C)cc3)oc2=O)cc1  > 100 µM
 7  Cc1cc2c(c(=O)o1)C(/C=C/c1ccc(Br)s1)=[O+][B-](F)(F)O2      9 µM
 8  COc1ccc(/C=C/C(=O)c2c(O)cc(/C=C/c3ccc(N(C)C)cc3)oc2=O)cc1  > 100 µM
 9  CC[NH+](CC)CC.Cc1cc2c(c(=O)o1)C(/C=C/C=C1\O[B-](F)(F)Oc3cc(C)oc(=O)c31)=[O+][B-](F)(F)O2     13 µM
10  COc1ccc(Br)cc1/C=C/C1=[O+][B-](F)(F)Oc2cc(/C=C/c3ccc(N(C)C)cc3)oc(=O)c21  > 100 µM
11  COc1ccc(/C=C/C=C/C(=O)c2c(O)cc(C)oc2=O)cc1  > 100 µM

* * *

- system name: Human immunodeficiency virus type 1 integrase (Human immunodeficiency virus 1) (UniProt Q7ZJM1)
- measurement notes: Selectivity index, ratio of IC50 for wild-type HIV1 integrase 3'-end processing activity to IC50 for wild-type HIV1 integrase strand transfer activity
Flag rule - Ratio IC50 less than 2 flags YES; the remaining entries get NO.

>>> df
                           smiles_structure  label
0   Cc1cc(O)c(C(=O)/C=C/c2ccc(F)cc2)c(=O)o1    YES
1  Cc1cc2c(c(=O)o1)C(/C=C/c1ccc(F)cc1)=[O+][B-](F)(F)O2    YES
2  Cc1cc2c(c(=O)o1)C(/C=C/c1ccc(Br)s1)=[O+][B-](F)(F)O2     NO
3  Cc1cc2c(c(=O)o1)C(/C=C/c1ccc(Br)cc1)=[O+][B-](F)(F)O2     NO
4  COc1ccc(/C=C/C=C/C2=[O+][B-](F)(F)Oc3cc(C)oc(=O)c32)cc1     NO
5  COc1ccc(/C=C/C=C/C(=O)c2c(O)cc(C)oc2=O)cc1     NO
6  Cc1cc(O)c(C(=O)/C=C/c2ccc(N(C)C)s2)c(=O)o1    YES
7  CC[NH+](CC)CC.Cc1cc2c(c(=O)o1)C(/C=C/C=C1\O[B-](F)(F)Oc3cc(C)oc(=O)c31)=[O+][B-](F)(F)O2    YES
8   Cc1cc(O)c(C(=O)/C=C/c2ccc(Br)s2)c(=O)o1     NO

* * *

Listing of entries alongside the reported IC50.
- system name: UniProt Q7ZJM1
- measurement notes: Inhibition of wild-type HIV1 integrase 3'-end processing activity
measure name: IC50

                           smiles_structure  measure_name    result
0  Cc1cc(O)c(C(=O)/C=C/C=C/c2ccc(N(C)C)cc2)c(=O)o1          IC50  > 100 µM
1  COc1ccc(Br)cc1/C=C/C(=O)c1c(O)cc(/C=C/c2ccc(N(C)C)cc2)oc1=O          IC50  > 100 µM
2  Cc1cc2c(c(=O)o1)C(/C=C/C=C1/N(C)c3ccccc3C1(C)C)=[O+][B-](F)(F)O2          IC50  > 100 µM
3  Cc1cc2c(c(=O)o1)C(/C=C/c1ccc(N(C)C)s1)=[O+][B-](F)(F)O2          IC50  > 100 µM
4  Cc1cc(O)c(C(=O)/C=C/c2ccc(Br)cc2)c(=O)o1          IC50  > 100 µM
5  Cc1cc2c(c(=O)o1)C(/C=C/c1ccc(N(C)C)cc1)=[O+][B-](F)(F)O2          IC50  > 100 µM
